Value source: ChEMBL document CHEMBL1201862

# Test system: SF-539
# assayMethodText: NCI tumour cell line growth inhibition, 48 h
Activity calls are given as the source filed them. No stated cut-off is given here; in the data, active = GI50 up to about 1.1 µM and inactive = higher.
Answer with one of the outcomes given here: class 1 (active), class 0 (inactive)

>>> qualitativelabel("CC1(C)OCC([C@H]2CC23SCCCS3)O1 (stereo partly specified)")
"class 0"

Task: Which result was noted for this compound in the test: O=C1NC(Cc2ccc(O)cc2)C(=O)N2CCCC12 (stereo unspecified)
Result: class 0

Task: Which result was noted for this compound in the test: CC1=C2C(O)C(C(C)C(=O)NC(C)C)CCC2(C)C=CC1=O (stereo unspecified)
Result: class 0

Task: Which result was noted for this compound in the test: CC1=C2C(=O)c3ccccc3C(=O)[C@H]2C[C@@H](N2CCCCCC2=O)O1
Result: class 0

Task: Which result was noted for this compound in the test: COC(=O)C(Cc1ccc2c(c1)CCC2)Cc1ccc2c(c1)CCC2
Result: class 0
